tested on: SK-OV-3 ovarian; test: NCI tumour cell line growth inhibition, 48 h
TGI values, listed per item

Quick note, TGI for "NS(=O)(=O)c1ccc(NC(=O)N/N=C/c2ccccc2O)cc1" landed at > 100 µM

====

system: T-47D breast; assay: NCI tumour cell line growth inhibition, 48 h
Parameter: TGI

Record excerpt, results attached:
COc1cc(/C=C2\C(=O)N(Cc3ccc(Cl)cc3)c3ccccc32)cc(OC)c1OC : 7.72 µM
CC(CSC(=N)N)C(N)=O (configuration not stated) : > 100 µM
O=C/C(=C1/C=Cc2cc([N+](=O)[O-])ccc2S1)c1ccccc1 : > 100 µM
CC(C)(O)/C1=C/C=C/CCCCCCCCCC1 : > 100 µM
Cn1c(=O)c2[nH]c(N=O)nc2n(C)c1=O : > 100 µM

Quick note, TGI for "COc1cnc2c(c1)C(=O)c1c-2n(CCCNC2=NCCS2)c(=O)c2cc(F)ccc12" landed at 17.2 µM

Quick note, TGI for "O=c1[nH]nc(Cc2ccccc2)n1/N=C/c1cccs1" landed at > 100 µM

====

system: SW-620 colon; experiment: NCI tumour cell line growth inhibition, 48 h
TGI values, listed per item

Quick note, TGI for "CCCCOCCOCCOC1=CC(=O)c2c(O)ccc(O)c2C1=O" landed at 3.06 µM

====

test system: XF 498 CNS; test: NCI tumour cell line growth inhibition, 48 h
TGI values, listed per item

Record excerpt, results attached:
Nc1nc2c(N)cc(C(F)(F)F)cc2nc1-c1ccccc1 : > 100 µM
Nc1nncc2c1c(Br)cn2C1OC(CO)C(O)C1O (stereo unspecified) : > 100 µM
COc1ccc2[nH]c3c(c2c1)[C@H](c1ccccc1)C[C@@H]1C(=O)N(c2ccccc2)C(=O)[C@H]31 : 55.8 µM
CN=c1ss/c(=N\C(=S)N(C)C)n1C : > 100 µM
COC(=O)C(=O)C(C(=O)OC)C(=O)C(=O)Nc1c(C)cccc1C (stereo unspecified) : > 100 µM

Shifting focus to the compound that follows.
Quick note, TGI for CC(C)N(C(=O)C12C3C4C1C1C2C3C41C#N)C(C)C (stereo unspecified) landed at > 100 µM

====

system: SK-MEL-2 melanoma; experiment: NCI tumour cell line growth inhibition, 48 h
Parameter: TGI

Record excerpt, results attached:
CC(C)Oc1c(C2(c3ccccc3)SCCCS2)c(=O)c1=O : > 100 µM
COc1ccc(C2=Nc3c(nc(OC)[nH]c3=O)NC(c3ccccc3)C2)cc1 (stereo not given) : > 100 µM
O=C1Nc2ccc(Cl)cc2/C1=C\c1c(-c2ccc(Cl)cc2)nc2sc(C3CC3)nn12 : 19.8 µM

Quick note, TGI for "CCOC(=O)C(C)(NC(=O)c1ccc(NCc2ccc3nc(NC(=O)c4ccccc4)nc(NC(=O)c4ccccc4)c3c2)cc1)C(=O)OCC" landed at 34.7 µM

Quick note, TGI for "CNC(=O)c1n[nH]n(C2CCCCC2)c1=S" landed at > 100 µM

Quick note, TGI for "CSc1ncnc2c1cnn2Cc1cn(COCCO)nn1" landed at > 100 µM

Quick note, TGI for "[N-]=[N+]=Nc1ccccc1-c1ccccc1[N+](=O)[O-]" landed at > 100 µM

Quick note, TGI for "NC(=O)c1ccc2c(c1)-c1nc-2nc2[n-]c(nc3nc(nc4[n-]c(n1)c1ccc(C(N)=O)cc41)-c1ccc(C(N)=O)cc1-3)c1ccc(C(N)=O)cc21.[Co+2]" landed at > 50 µM
